biological target: UniProtKB Q6UWP7; assay: Cell-based assay for ALCAT inhibitor compounds (H9C2 cells); conditions: H9c2, 3 μM compound; H9C2 vector cell line and H9C2 with stable overexpression of ALCAT1
Sequence (Q6UWP7 whole entry, species assumed): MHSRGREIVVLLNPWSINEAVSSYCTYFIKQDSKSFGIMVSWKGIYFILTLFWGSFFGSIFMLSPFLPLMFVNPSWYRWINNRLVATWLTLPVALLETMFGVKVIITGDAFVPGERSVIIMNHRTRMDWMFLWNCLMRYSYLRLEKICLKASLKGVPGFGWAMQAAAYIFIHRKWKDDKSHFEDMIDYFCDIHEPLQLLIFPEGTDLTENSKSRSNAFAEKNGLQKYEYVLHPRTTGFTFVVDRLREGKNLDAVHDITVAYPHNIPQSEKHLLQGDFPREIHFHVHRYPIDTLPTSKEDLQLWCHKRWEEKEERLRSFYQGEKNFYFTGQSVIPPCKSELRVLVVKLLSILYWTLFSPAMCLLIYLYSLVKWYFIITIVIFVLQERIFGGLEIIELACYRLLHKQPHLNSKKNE
Rule: yes (1) for inhibition at 3 µM not less than 40%, no (0) for anything less.

* COc1ccc(Br)cc1C(=O)Nc1cc(-c2nnc(-c3ccco3)o2)ccc1F [Compound 183] | yes (1)

Confirm if inhibition at 3 µM reported for the molecule CCOc1ccc(C)cc1C(=O)Nc1cc(-c2nnc(-c3ccco3)o2)ccc1F [Compound 221] is 40% or above.
no (0)

Confirm if inhibition at 3 µM reported for the molecule O=C(Nc1cc(-c2nnc(-c3ccco3)o2)ccc1F)c1cc(F)ccc1OCC(F)(F)F [Compound 319] is 40% or above.
no (0)

Confirm if inhibition at 3 µM reported for the molecule O=C(Nc1cc(-c2nnc(-c3ccco3)o2)ccc1F)c1cc(Cl)ccc1OCCF [Compound 318] is 40% or above.
no (0)

Confirm if inhibition at 3 µM reported for the molecule CCOc1ccc(CC)cc1C(=O)Nc1cc(-c2nnc(-c3ccco3)o2)ccn1 [Compound 373] is 40% or above.
no (0)

Confirm if inhibition at 3 µM reported for the molecule CCCOc1ccc(Cl)cc1C(=O)Nc1cc(-c2nnc(-c3ccco3)o2)ccc1F [Compound 209] is 40% or above.
no (0)

Confirm if inhibition at 3 µM reported for the molecule COc1ccc(OC(F)(F)F)cc1C(=O)Nc1cccc(-c2nnc(-c3ccco3)o2)c1 [Compound 279] is 40% or above.
no (0)

Confirm if inhibition at 3 µM reported for the molecule COc1ccc(OC(F)(F)F)cc1C(=O)Nc1cc(-c2nnc(-c3ccco3)o2)ccc1F [Compound 405] is 40% or above.
yes (1)

Confirm if inhibition at 3 µM reported for the molecule CCOc1ccc(CC)cc1C(=O)Nc1cc(-c2nnc(-c3ccco3)o2)ccc1F [Compound 222] is 40% or above.
yes (1)

Confirm if inhibition at 3 µM reported for the molecule O=C(Nc1cc(-c2nnc(-c3ccco3)o2)ccc1F)c1cc(Cl)ccc1OCF [Compound 306] is 40% or above.
no (0)

Confirm if inhibition at 3 µM reported for the molecule O=C(Nc1cc(-c2nnc(-c3ccco3)o2)ccc1F)c1cc(Cl)ccc1OC(F)F [Compound 305] is 40% or above.
no (0)

Confirm if inhibition at 3 µM reported for the molecule O=C(Nc1cc(-c2nnc(-c3ccco3)o2)ccc1F)c1cc(Cl)ccc1OC(F)(F)F [Compound 304] is 40% or above.
no (0)

Confirm if inhibition at 3 µM reported for the molecule COc1ccc(Cl)cc1C(=O)Nc1cc(-c2nnc(-c3ccco3)o2)ccc1F [Compound 184] is 40% or above.
yes (1)

Confirm if inhibition at 3 µM reported for the molecule COc1ccc(OC(F)(F)F)cc1C(=O)Nc1cc(-c2nnc(-c3ccco3)o2)ccn1 [Compound 400] is 40% or above.
yes (1)
